assay: inhibitors of polyQ protein aggregation (AID 1604); details: polyglutamine-induced protein aggregation inhibition assay; stronger effect = higher value; tested at 2.5 µM
Decide using inhibition of aggregation: a value greater than or equal to 40% is y, a smaller one is n.

Is it the case that CC1=NCCc2c1[nH]c1cc(O)ccc21 has inhibition of aggregation reaching or exceeding 40%?
n

###

target: L-lactate dehydrogenase (Plasmodium falciparum (isolate CDC / Honduras)); test: PfLDH activity inhibition – cell lysate, 3D7 strain, counter-screen for P. falciparum growth inhibition project (AID 2304);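 also: 0% = vehicle and 100% = reference inhibitor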; conditions: P. falciparum 3D7 crude extract, LDH APAD/NBT absorbance; at 2 µM; stronger effect = higher value
For each record, write down the corresponding inhibition.
Give bare numbers, in %.

For every listed record, write down its inhibition.
1. O=C(NC1CCC(N2CCC3(CC2)C(=O)NCN3c2ccccc2)CC1)c1cc2ccccc2[nH]1 (stereo not given)
2. CC[C@H]1CN2CC[C@H]1C[C@H]2[C@H](O)c1cc(-c2ccc(Cl)c(Cl)c2)nc2ccc(OC)cc12
3. CCCCCCc1cc(O)c2c3c(c(=O)oc2c1)CCN(C)C3
4. COc1ccc2[nH]cc(C3CCN(Cc4ccc(NC(=O)c5ccc(-c6ccccc6)cc5)cc4)CC3)c2c1
5. CC(Cc1ccc(SCCSc2ccccc2)cc1)NCC(O)c1cccc(Cl)c1 (stereo not given)

1
6
4
-6
-7

For every listed record, write down its inhibition.
1. CN(c1cc(NC(=O)c2cccs2)ccn1)C1CCN(Cc2ccccc2)CC1
2. CC(Cc1ccc(OCCCCOc2ccccc2)cc1)NCCC1CCCN1C (stereo not given)
3. CCCCCCC(C)(C)c1cc(O)c2c3c(c(=O)oc2c1)CCN(Cc1ccccc1)C3
4. CC(Cc1ccc(OCCCCOc2ccccc2)cc1)NCCc1ccccc1Cl (stereo not given)
5. CN1CC=C(c2c[nH]c3ccc(Sc4ccccc4)cc23)CC1

-1
3
6
1
-2

###

For each record, write down the corresponding parasite load remaining.
assay: liver-stage malaria parasite growth inhibition, primary screen, cell-based, HepG2, luciferase luminescence, HepG2 viability (AID 624349);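 also: 100% = mean of DMSO negative control wells on the same plate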; settings: P. berghei liver stage in HepG2, luciferase luminescence, concentration not given here; stronger effect = lower value
Answers are plain numbers, in %.

Sample answers from the record:
compound: CC[C@@H](C)C(=O)O[C@H]1[C@H](O)[C@H]2[C@@H](CN3C[C@@H](C)CC[C@H]3[C@@]2(C)O)C2C[C@]34O[C@@]5(O)[C@@H](OC(=O)[C@](C)(O)CC)CC[C@@]3(C)[C@@H]5[C@@H](OC(C)=O)[C@@H](OC(C)=O)[C@H]4[C@@]21O (some centres undefined)
unit name: %
parasite load remaining: 119
--
compound: O=C1NC(=O)c2c1c1c3ccccc3n3c1c1c2c2ccccc2n1C1CCC3O1
unit name: %
parasite load remaining: 66.3
--
compound: CC[C@H]1CN2CCc3cc(OC)c(OC)cc3[C@@H]2C[C@@H]1C[C@H]1NCCc2cc(O)c(OC)cc21
unit name: %
parasite load remaining: 8.07
--
compound: C[C@]12CC[C@H]3[C@@H](CC[C@]4(O)C[C@@H](O)CC[C@]34C=O)[C@@]1(O)CC[C@@H]2C1=CC(=O)OC1
unit name: %
parasite load remaining: 0.385
--
compound: COc1cc2c(cc1O)[C@@H]1Cc3ccc(OC)c(O)c3CN1CC2
unit name: %
parasite load remaining: 152
--
compound: COc1ccc2[nH]cc(C3=CCNCC3)c2c1
unit name: %
parasite load remaining: 75.7

For every listed record, write down its parasite load remaining.
1. Nc1ccc([As](=O)(O)O)cc1
2. NC1=NC(=O)C(c2ccccc2)O1 (centres undefined)
3. CC12NC(Cc3ccccc31)c1ccccc12 (centres undefined)

1. 57.3
2. 109
3. 63.2

###

experiment: viability rescue of complex I mutant cybrids, primary screen, cell-based, galactose medium, ATP luminescence (AID 1645843); conditions: complex I mutant cybrid cells, 72 h, stronger effect = higher value;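 also: positive z means more ATP and so rescue of galactose-driven cybrid death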
For each record, write down the corresponding z-score.
Answers are plain numbers.

Sample answers from the record:
compound: C[C@]12CCC(O)CC1=CCC1C2CC[C@@]2(C)C1CC[C@]2(C)O (stereo partly specified)
readout: z-score
reported: -0.34
//
compound: C[C@]12Cc3cn[nH]c3CC1CCC1C2CC[C@@]2(C)C1CC[C@]2(C)O (stereo partly specified)
readout: z-score
reported: -0.42
//
compound: NC1=NC(=O)C(c2ccccc2)O1 (stereo unspecified)
readout: z-score
reported: 0.395
//
compound: C[C@]12CCC3C(CCC4=CC(=O)CC[C@@]43C)C1CCC2O (stereo partly specified)
readout: z-score
reported: 0.515
//
compound: CN1CCN(c2ccc3ccccc3n2)CC1
readout: z-score
reported: -0.58

For every listed record, write down its z-score.
1. O=C1NC(=O)c2c1c1c3ccccc3[nH]c1c1[nH]c3ccccc3c21
2. C[C@H](Cc1ccc(OCC(=O)O)cc1)NC[C@H](O)c1cccc(Cl)c1
3. O=S1(=O)N(CCN2CC=C(c3c[nH]c4cc(F)ccc34)CC2)c2cccc3c2N1CCC3
4. O=C(O)Cc1cccnc1C(=O)O
5. CO[C@H]1CC=C2CCN3CCC4=C(CC(=O)OC4)[C@]23C1
6. CC(C)CC(N)C1(c2ccc(Cl)cc2)CCC1 (stereo unspecified)

[-0.6, -0.27, -1.29, 0.32, 0.375, -0.615]

###

tested on: Aerobactin synthetase IucA (Klebsiella pneumoniae, hypervirulent); experiment: IucA enzyme inhibition, biochemical, LOPAC library, absorbance readout (AID 1346212); conditions: IucA enzyme assay, absorbance (OD) readout; stronger effect = lower value;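 tested at 8 µM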;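 also: 100% = no compound wells and 0% = no enzyme wells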
readout: remaining activity (%)
Give bare numbers, in %.

Sample answers from the record:
molecule: NCCCCC(=O)O
reported: 104
//
molecule: Oc1ccc(Cn2cc[nH]c2=S)cc1
reported: 102
//
molecule: Cc1[nH]c(=O)c(C#N)cc1-c1ccc2nccn2c1
reported: 112
//
molecule: N[C@H](C(=O)O)[C@H]1C[C@@H]1C(=O)O
reported: 93.8
//
molecule: COc1ccc(Cc2nccc3cc(OC)c(OC)cc23)cc1OC
reported: 119

For every listed record, write down its remaining activity.
1. Brc1c(Br)c(Br)c2n[nH]nc2c1Br
2. O=C(O)CCC/C=C\C[C@@H]1[C@@H](/C=C/[C@H](O)C2Cc3ccccc3C2)[C@@H](F)C[C@@H]1O

1: 120; 2: 97.7

For every listed record, write down its remaining activity.
1. O=C1OC(=O)C2C3CCC(O3)C12 (configuration not stated)
2. Cn1cc(C(=O)OCC2CCN(CCNS(C)(=O)=O)CC2)c2ccccc21

1. 106
2. 104

For every listed record, write down its remaining activity.
1. N=C(N)N1CCc2ccccc2C1
2. N#Cc1cc([N+](=O)[O-])c2sc(C(N)=O)[n+]([O-])c2c1
3. CCCn1c(=O)c2[nH]c(C3CCCC3)nc2n(CCC)c1=O

[106, 106, 76.9]

###

test: growth inhibition of GSK3B-pretreated HCT116 cells – cell-based, CellTiter-Glo, 0.2 to 20 µM (AID 1117336); details: HCT116 viability after GSK3B inhibitor, at 20 µM
Calls of active or inactive are those of the source.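 Rule for the calls: active = compounds lowering colon cancer cell viability after pretreatment blocking the GSK3B kinase; inactive = the rest.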
Field 'call' accepts active, inactive

Worked examples follow.
molecule: NC(=O)CN1CCCC1=O
assigned label: inactive
//
molecule: NCC(O)c1ccc(O)cc1 (stereo unspecified)
assigned label: inactive
//
molecule: O=c1oc2ccccc2c(O)c1Cc1c(O)c2ccccc2oc1=O
assigned label: active

Now look at this one.
Per the assay record, what outcome was assigned to C[C@H]1CNCCc2ccc(Cl)cc21 ?
inactive

###

For each record, write down the corresponding aggregation suppression score.
assay: suppressors of polyglutamine aggregation in yeast, 75Q-TubH (AID 1616); settings: S. cerevisiae 75Q-TubH polyglutamine aggregation suppression; stronger effect = higher value
One number for each entry.

Sample answers from the record:
compound: CC1CC[C@@]2(NC1)OC1CC3C4CC=C5CC(O)CCC5(C)C4CCC3(C)C1[C@@H]2C (stereo partly specified)
reported: 0.556
//
compound: N#CC(O[C@@H]1O[C@H](CO[C@@H]2O[C@H](CO)[C@@H](O)[C@H](O)[C@H]2O)[C@@H](O)[C@H](O)[C@H]1O)c1ccccc1 (stereo partly specified)
reported: 1.51
//
compound: NCCc1ccc(O)cc1
reported: 1.19
//
compound: NC1C[C@H]1c1ccccc1 (stereo partly specified)
reported: 1.29

For every listed record, write down its aggregation suppression score.
1. CCOC(=O)C1C(OC(=O)c2ccccc2)CC2CCC1N2C (stereo unspecified)
2. C[C@H]1C(=O)O[C@@H]2CCN3CC=C(COC(=O)[C@](C)(O)[C@]1(C)O)[C@H]23
3. Oc1ccc2c3c1OC1[C@@H](O)CC[C@@]4(O)[C@@H](C2)N(CC2CCC2)CC[C@]314 (stereo partly specified)

[1.45, 1.12, 1.67]

For every listed record, write down its aggregation suppression score.
1. CC(C)[N+](C)(CCC(C(N)=O)(c1ccccc1)c1ccccc1)C(C)C
2. NCCC(O)C(=O)N[C@@H]1C[C@H](N)[C@@H](O[C@H]2O[C@H](CN)[C@@H](O)[C@H](O)[C@H]2N)[C@H](OC2O[C@H](CO)[C@H](O)[C@H]2O)[C@H]1O (stereo partly specified)
3. CO[C@H]1[C@H](O)[C@H](O[C@H]2CC[C@]3(C)C4CC[C@]5(C)C(C6=CC(=O)OC6)CC[C@]5(O)C4CC[C@@H]3C2)O[C@@H](C)[C@@H]1O (stereo partly specified)
4. c1ccc2c(c1)sc1ccccc12

1. 1.25
2. 1.55
3. 1.46
4. 0.0947

For every listed record, write down its aggregation suppression score.
1. CN1C(=O)CCS(=O)(=O)C1c1ccc(Cl)cc1 (stereo unspecified)
2. C=CCC1(C(C)CCC)C(=O)N=C(S)NC1=O (stereo unspecified)
3. O=C1CN=C(c2ccccc2Cl)c2cc([N+](=O)[O-])ccc2N1
4. O=c1c2ccccc2[se]n1-c1ccccc1
5. CN1CCc2cc3c(cc2[C@H]1[C@@H]1OC(=O)c2c1ccc1c2OCO1)OCO3
6. O=C1CCCN1CC#CCN1CCCC1

1.17
1.19
0.77
0.00636
0.931
1.3

For every listed record, write down its aggregation suppression score.
1. CCCC(C)C1(CC)C(=O)N=C(S)NC1=O (stereo unspecified)
2. CN1C(=O)CN=C(c2ccccc2)c2cc(Cl)ccc21
3. C[C@]12CCC(=O)C=C1CCC1C2CC[C@@]2(C)C1CC[C@@H]2O (stereo partly specified)
4. O=C1C=C2C(=CCOC2O)O1 (stereo unspecified)

0.929
0.718
-0.43
0.84
